Reference source: PubChem BioAssay AID1159580

compounds and their reported normalized growth
# methodSummary: chemical genetic growth profiling, strain panel (AID 1159580);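 further: tested at 20 µM; growth read once vehicle control cultures reached saturation at 30 °C; 1 = growth at the plate median or of vehicle wells; lower values mean less growth of the strain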
# conditionSummary: S. cerevisiae deletion strains, growth OD, locus YNL224C, strain SQS1, stronger effect = lower value
About 2,000 (36%) of roughly 5,500 compounds were called active. About 18% were inconclusive and are not listed. The list shows a part of the results.
When you answer, write just the number.

CC(C)(C)c1cc(C=C(C#N)C#N)cc(C(C)(C)C)c1O :: 0.931
N#C/C(=C\c1ccc(O)c(O)c1)C(=O)c1ccc(O)c(O)c1 :: 1
NNC(=O)c1ccc(O)cc1 :: 0.974
COc1cc(C=C(C#N)C#N)cc(O)c1O :: 0.969
O=c1c(O)c(-c2cc(O)c(O)c(O)c2)oc2cc(O)cc(O)c12 :: 0.967
N#CC(C#N)=Cc1ccc(O)c(O)c1 :: 0.998
N[C@@H](COP(=O)(O)O)C(=O)O :: 0.992
N#C/C(=C\c1ccc(O)c(O)c1)C(=O)NCCc1ccccc1 :: 0.998

Fill in normalized growth for record N#CC(C#N)=Cc1cc(O)c(O)c(O)c1 0.999

Quickly give me recorded normalized growth for CCCC(C)(COC(N)=O)COC(=O)NC(C)C (stereo not drawn) 0.996

---

# methodSummary: chemical genetic growth profiling, strain panel (AID 1159580);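 further: tested at 20 µM; growth read once vehicle control cultures reached saturation at 30 °C; 1 = growth at the plate median or of vehicle wells; lower values mean less growth of the strain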
# conditionSummary: S. cerevisiae deletion strains, growth OD, locus YNL161W, strain CBK1, stronger effect = lower value
In all, about 5,500 compounds went through this assay and about 2,000 (36%) were called active. Another 18% or so got no clear call; they are omitted. This is one part of the list.
measuredParameter: normalized growth
Enter a number only.

Observe how each entry below is paired with its result.
O=S(=O)(CS(=O)(=O)Oc1ccc(Cl)c(Cl)c1)Oc1ccc(Cl)c(Cl)c1 :: 0.949
FC(F)(F)c1cccc(NC(=S)NN=C2CCCCCC2)c1 :: 0.987
COc1cc(Br)cc(C=Nc2ccc(Sc3ccccc3)nc2Sc2ccccc2)c1O :: 0.972

Report normalized growth, nothing else, for this molecule: O/N=C(/c1ccc(Cl)cc1)c1cc2ccccc2o1 0.942

Identify normalized growth associated with the molecule FC(F)(F)c1ccc(N2CCc3ccccc3C2)c(NC(=S)Nc2cc(Cl)cc(Cl)c2)c1 0.978

---

# methodSummary: chemical genetic growth profiling, strain panel (AID 1159580);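 further: tested at 20 µM; growth read once vehicle control cultures reached saturation at 30 °C; 1 = growth at the plate median or of vehicle wells; lower values mean less growth of the strain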
# conditionSummary: S. cerevisiae deletion strains, growth OD, locus YER167W, strain BCK2, stronger effect = lower value
Hit rate of the full screen: of about 5,500 compounds, about 2,000 (36%) were called active. About 18% were inconclusive and are not listed. This is one part of the list.
Measured normalized growth accompanies every entry in the list below.

CC(C)(O)[C@@H]1Cc2cc3ccc(=O)oc3cc2O1 :: 1.02 (inactive)
COc1cccc2c(C)cc(=O)[nH]c12 :: 0.947 (inactive)
COc1ccc2c(c1)CCC1C2CC[C@@]2(C)C1CC[C@@H]2O (stereo not given in full) :: 0.653 (active)

Consider the compound CCCCOc1cc(C(=O)NCCN(CC)CC)c2ccccc2n1 and give its recorded normalized growth. 1 (inactive)

Identify measured normalized growth associated with CC(C)[N+](C)(CCC(C(N)=O)(c1ccccc1)c1ccccc1)C(C)C 0.999 (inactive)

Quickly give me recorded normalized growth for O=c1c(O)c(-c2ccc(O)c(O)c2)oc2cc(O)cc(O)c12 0.976 (inactive)
